B1: Osa-1-4 twister ribozyme (parent)
chain: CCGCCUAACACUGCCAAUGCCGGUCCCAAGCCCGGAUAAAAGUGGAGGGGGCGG

Variants of: B1
Assay Summary: self-cleavage, relative activity (ratio to wild type); higher = more cleavage; co-transcriptional
Kindly state self-cleavage for each of the entries shown.
One number for each entry.

The following variants have reported results that may help.
* A46C C15U | 0.04
* A16C G22C | 0.07
* A10U G45U | 0.02

Working through the 3 variants below one at a time, give self-cleavage for each.
1. G19A G35U
2. A46G U37A
3. A16G U12C

**Result**
1. 0.2
2. 0.05
3. 0.53

Working through the 8 variants below one at a time, give self-cleavage for each.
1. A28G G23A
2. A46G G54C
3. A8G G54U
4. C11A C52G
5. C27G G48C
6. A41C G22A
7. A36G C26G
8. G35U G45U

**Result**
1: 0.13; 2: 0.06; 3: 0.32; 4: 0.74; 5: 0.03; 6: 0.8; 7: 0.13; 8: 0.09

Working through the 3 variants below one at a time, give self-cleavage for each.
1. G50C U12G
2. G34C U18C
3. G45A G54A

**Result**
0.17
0.36
0.15

Working through the 5 variants below one at a time, give self-cleavage for each.
1. A40C A8C
2. A40G G22C
3. C32G G22C
4. G50A
5. A46G G48C

**Result**
0.04
0.06
0.04
0.76
0.03

Working through the 5 variants below one at a time, give self-cleavage for each.
1. C27U G19A
2. G49A
3. G35U G47C
4. A36G C14A
5. A46G C27U

**Result**
1: 0.08; 2: 0.26; 3: 0.07; 4: 0.19; 5: 0.04

Working through the 3 variants below one at a time, give self-cleavage for each.
1. C31G G54C
2. A41U G51U
3. C9G G42U

**Result**
1. 0.07
2. 0.26
3. 0.05

Working through the 8 variants below one at a time, give self-cleavage for each.
1. A29U G53C
2. A7G G54C
3. A10U C26G
4. A38C G53U
5. A16G C31G
6. G23U G50C
7. G47U G48C
8. C32A U37C

**Result**
1. 0.04
2. 0.17
3. 0.05
4. 0.24
5. 0.16
6. 0.05
7. 0.05
8. 0.13

Working through the 5 variants below one at a time, give self-cleavage for each.
1. G23A G54A
2. A40G C33A
3. G42C G48U
4. C14U C25G
5. C21U U18C

**Result**
1. 0.2
2. 0.08
3. 0.04
4. 0.06
5. 1.03
